tested on: rodent lifetime carcinogenesis bioassay, tumor incidence TD50; test: carcinogenic potency in animals, long-term in vivo studies, CPDB compilation (AID 1745844); details: mouse; strain B6C3F1; females; inhaled; site: lung; lesion: alveolar/bronchiolar adenoma + alveolar/bronchiolar carcinoma + carcinoma; dosed 95 weeks; study length 95 weeks

- SMILES: "FC(F)=C(F)F"
  TD50 (mg/kg/day): 1640

###

system: rodent lifetime carcinogenesis bioassay, tumor incidence TD50; experiment: carcinogenic potency in animals, long-term in vivo studies, CPDB compilation (AID 1745844); conditions: rat; strain Fischer 344; males; by gavage; site: testis; lesion: interstitial-cell tumor; dosed 103 weeks; study length 104 weeks
Activity calls are given as the source filed them. No rule for the calls is given here.
# TD50 per entry
ASSAY ENDPOINT: TD50

- COMPOUND: "CCCCCl"
  RESULT: "45.1 mg/kg/day (inactive)"
- COMPOUND: "O=CCC=O"
  RESULT: "39.8 mg/kg/day"
- COMPOUND: "c1ccc2occc2c1"
  RESULT: "8.03 mg/kg/day (inactive)"
- COMPOUND: "CC(O)c1ccccc1 (stereo not drawn)"
  RESULT: "51.5 mg/kg/day"
- COMPOUND: "C=CC1CC=CCC1 (stereo not drawn)"
  RESULT: "62.3 mg/kg/day"
- COMPOUND: "CC(I)C1OCC(CO)O1 (stereo not drawn)"
  RESULT: "40.6 mg/kg/day"
- COMPOUND: "S=c1[nH]c2ccccc2s1"
  RESULT: "240 mg/kg/day"
- COMPOUND: "Nc1ccc([N+](=O)[O-])cc1O"
  RESULT: "28.6 mg/kg/day"

###

tested on: rodent lifetime carcinogenesis bioassay, tumor incidence TD50; test: carcinogenic potency in animals, long-term in vivo studies, CPDB compilation (AID 1745844); details: rat; strain Sprague-Dawley; males; inhaled; site: nasal cavity; lesion: squamous-cell carcinoma; dosed 54 weeks; study length 136 weeks

- COMPOUND: "ClCC1CO1 (stereo unspecified)"
  MEASURE UNIT: "mg/kg/day"
  TD50: 421

###

# TD50 per entry
test system: rodent lifetime carcinogenesis bioassay, tumor incidence TD50; assay: carcinogenic potency in animals, long-term in vivo studies, CPDB compilation (AID 1745844); conditions: mouse; strain B6C3F1; females; in feed; site: lung; lesion: alveolar/bronchiolar adenoma + alveolar/bronchiolar carcinoma; dosed 78 weeks; study length 95 weeks
ASSAY ENDPOINT: TD50

- SMILES: "CCn1c2ccccc2c2cc(N)ccc21"
  SYSTEM UNDER TEST: "rodent lifetime carcinogenesis bioassay, tumor incidence TD50"
  RESULT: "1780 mg/kg/day"
- SMILES: "[O-]/[N+](=N\\O)c1ccccc1"
  SYSTEM UNDER TEST: "rodent lifetime carcinogenesis bioassay, tumor incidence TD50"
  RESULT: "798 mg/kg/day"
- SMILES: "CN(C)c1ccc(N=NS(=O)(=O)O)cc1"
  SYSTEM UNDER TEST: "rodent lifetime carcinogenesis bioassay, tumor incidence TD50"
  RESULT: "1750 mg/kg/day"
- SMILES: "c1ccc(NNc2ccccc2)cc1"
  SYSTEM UNDER TEST: "rodent lifetime carcinogenesis bioassay, tumor incidence TD50"
  RESULT: "8760 mg/kg/day"

###

tested on: rodent lifetime carcinogenesis bioassay, tumor incidence TD50; test: carcinogenic potency in animals, long-term in vivo studies, CPDB compilation (AID 1745844); conditions: rat; strain Fischer 344; females; in drinking water; site: clitoral gland + cervix uteri + colon, descending + liver + mammary gland + palate + pharynx + rectum + skin + tongue + uterus + Zymbal's glan; lesion: adenoma + adenoma, bilateral + carcinoma + carcinoma, bilateral + papillary adenoma + adenocarcinoma + adenomatous polyp + hepatocellu; dosed 91 weeks; study length 93 weeks
ASSAY ENDPOINT: TD50 (mg/kg/day)

- SMILES: "COc1cc(-c2ccc(N)c(OC)c2)ccc1N"
  ASSAY ENDPOINT: "TD50"
  MEASURE UNIT: "mg/kg/day"
  RESULT: 1.19
